B1: CPXM2 (parent)
chain: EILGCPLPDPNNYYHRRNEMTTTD

Variants of: B1
Assay: protein stability index of a GFP-peptide fusion (GPS, HEK-293T) (PSI 1-6); higher = more stable;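 note: lentivirally expressed fusions sorted by FACS into six bins by GFP to DsRed ratio, PSI derived from sequencing read proportions per bin multiplied by bin number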
Conditions: c terminus: a fixed tail appended
EXPERIMENTAL READOUT: protein stability index

> print(dat)
    sequence.change     experimental.readout  measured.value
 1              G4M  protein stability index            3.15
 2             N18R  protein stability index            3.19
 3              L7N  protein stability index            4.13
 4              D9Y  protein stability index            2.75
 5             Y13H  protein stability index            4.18
 6             T23Y  protein stability index            3.13
 7             T22Q  protein stability index            4.18
 8             N11K  protein stability index            3.47
 9             T23E  protein stability index             4.3
10             R16N  protein stability index            3.82
11             N11Y  protein stability index            3.13
12              P6L  protein stability index            2.14
13             M20D  protein stability index            4.35
14              D9R  protein stability index            3.34
15             E19T  protein stability index            2.95
16             R17C  protein stability index            2.98
